- Target System: SARS-CoV-1 spike on pseudovirus (SARS-CoV-1, UniProt P59594 14-1255)
- Method Summary: cell-based or functional assay
Assay Readout: PSV neutralization IC50

Binder | Reading
L6.dP02E05 (antibody, V domains shown, human IgG1) VH: QVQLVQSGSELKKPGASVKVSCKASGYTFATYALNWVRQAPGQGLEWMGWVNTNTGSPTYAQGFTGRFVFSFDTSVSTAYLQIRTLKAEDTAVYYCAVYYYDSGSPGWFDPWGQGTLVTVSS VL: DIQLTQSPSSLSASVGDRVTITCRASQTASSYLNWYQQKPGKAPNLLIYAASSLQSGVPSRFSGSGSVTDFTLTISSLQPEDFATYYCQQSYSTPPTFGQGTKVDIK | > 50 µg/mL

Which PSV neutralization IC50 value is on record for L6.dP02F01 (antibody, V domains shown, human IgG1) VH: EVQLVESGGGLVQPGRSLRLSCAASGFTFDDYAMHWVRQAPGKGLEWVSGISWNSGSIAFAGSVKGRFTISRDNAKNSLYLQMNSLRAEDTALYYCAKDQGYSYGNYFDYWGQGTLVTVSS VL: QLVLTQPPSVSVAPGKTARITCGGNNIGSKSVYWYQQKPGQAPVLVVYDDSDRPSGIPERFSGSNSGNTATLTISRVEAGDEADYYCQVWDSSSDHPYVFGSGTKVTVL ? 5.56 µg/mL
